Values from patent US8148386B2

- protocol-details: Phase 1 clinical trial: safety, tolerability and pharmacokinetics in healthy adults
- Type: in vivo, human
- measurement-context: human, in vivo; after oral administration, healthy adults
parameter-measured: Tmax

Identify measured Tmax associated with CCCOc1ccc(S(=O)(=O)NCCC2CCCN2C)cc1-c1nc2c(CCC)nn(C)c2c(=O)[nH]1 (stereo not shown)
1 to 2 h

* * *

- protocol-details: Tissue distribution in urogenital organs
- measurement-context: male, Sprague-Dawley, rat, 30 mg/kg
parameter-measured: concentration at 360 min (ng/mL)
Hi! Could you send only the number? It should be in ng/mL, unit omitted.

Identify measured concentration at 360 min associated with CCCc1nn(C)c2c(=O)[nH]c(-c3cc(S(=O)(=O)N4CCN(C)CC4)ccc3OCC)nc12 [Sildenafil]
259

* * *

- protocol-details: Pharmacokinetic experiment in the human body (BPH patients)
- Assay type: in vivo
- measurement-context: human, in vivo, 100 mg
parameter-measured: half-life (h)
Hi! Could you send only the number? It should be in h, unit omitted.

Identify measured half-life associated with CCCOc1ccc(S(=O)(=O)NCCC2CCCN2C)cc1-c1nc2c(CCC)nn(C)c2c(=O)[nH]1 (stereo not shown)
12.1

* * *

- protocol-details: Pharmacokinetic experiment in the human body (BPH patients)
- Format: in vivo
- measurement-context: male, human, in vivo
parameter-measured: half-life

Identify measured half-life associated with CCCOc1ccc(S(=O)(=O)NCCC2CCCN2C)cc1-c1nc2c(CCC)nn(C)c2c(=O)[nH]1 (stereo not shown) [Compound of formula 1]
9 to 15 h
